tested on: BT-549 breast; assay: NCI tumour cell line growth inhibition, 48 h

>  <COMPOUND>
Cc1cc2cc3cc(C)c(N(C)C)cc3[n+](C)c2cc1N(C)C

>  <TARGET>
BT-549 breast

>  <VALUE OPERATOR>
=

>  <TGI / µM>
9.62

$$$$
>  <COMPOUND>
CCCc1cc(O)c2c3c(c(=O)oc2c1)CN(C)CC3

>  <TARGET>
BT-549 breast

>  <VALUE OPERATOR>
>

>  <TGI / µM>
100

$$$$
>  <COMPOUND>
CN(c1cc2ncc(=O)[nH]c2cc1NC(N)=NCc1ccc(Cl)cc1)C1CCCCC1

>  <TARGET>
BT-549 breast

>  <VALUE OPERATOR>
=

>  <TGI / µM>
14.6

$$$$
>  <COMPOUND>
Cc1cc(NS(=O)(=O)c2ccc(NC(=O)c3ccc4[nH]c5ccccc5c(=O)c4c3)cc2)no1

>  <TARGET>
BT-549 breast

>  <VALUE OPERATOR>
>

>  <TGI / µM>
100

$$$$
>  <COMPOUND>
CC1(C)/C(=N\O)C2(C#N)CCC1C2 (stereo not given)

>  <TARGET>
BT-549 breast

>  <VALUE OPERATOR>
>

>  <TGI / µM>
100

$$$$
>  <COMPOUND>
COc1ccc(/C=C/c2sc3ccccc3[n+]2CCCCI)cc1OC

>  <TARGET>
BT-549 breast

>  <VALUE OPERATOR>
>

>  <TGI / µM>
10

$$$$
>  <COMPOUND>
O=S1(=O)C(c2ccccc2)C(N2CCCCC2)C1C1CC2c3ccccc3C1c1ccccc12 (stereo not given)

>  <TARGET>
BT-549 breast

>  <VALUE OPERATOR>
>

>  <TGI / µM>
100

$$$$
>  <COMPOUND>
CN(CCCCCl)P(=O)(OCc1ccc([N+](=O)[O-])o1)OCC1OC(n2ccc(N)nc2=O)C(F)(F)C1O (stereo not given)

>  <TARGET>
BT-549 breast

>  <VALUE OPERATOR>
=

>  <TGI / µM>
88.2

$$$$
>  <COMPOUND>
Cc1ccc(Cc2n[nH]c(=O)n2-c2ccccc2)cc1

>  <TARGET>
BT-549 breast

>  <VALUE OPERATOR>
>

>  <TGI / µM>
100

$$$$
>  <COMPOUND>
CCCCCCc1cc2cc(-c3nc4ccccc4[nH]3)c(=Nc3ccccc3C)oc2cc1O

>  <TARGET>
BT-549 breast

>  <VALUE OPERATOR>
=

>  <TGI / µM>
3.55

$$$$
